Test system: SF-539
Experiment: NCI tumour cell line growth inhibition, 48 h
Activity calls are given as the source filed them. No stated cut-off is given here; in the data, active = GI50 up to about 1.1 µM and inactive = higher.
Please reply with one of these outcomes: active, inactive

Take a look at these entries with their results.
compound	cat
CCCC1C[C@H]2CCCCN2[C@H]2CCCN12 (some centres not stated)	inactive
COc1ccc2c(c1OC)C(=O)O[C@@H]2[C@H]1c2c(cc3c(c2OC)OCO3)CCN1C	inactive
CC1=COC(=O)c2ccccc2N1	inactive

Lab log entry: COc1cccc2c1C(=O)C1=C(C2=O)C(O)CC(C)(C)O1 (configuration not stated) — outcome as called in the assay?
inactive

Lab log entry: `O=C1C(NCCO)=C(N2CC2)C(=O)C(NCCO)=C1N1CC1` — outcome as called in the assay?
inactive
